# procedure.text: Kinetic solubility of the compound at pH 7.4 after 2 hrs by shake flask method-based HPLC-DAD analysis
# Format: physicochemical
# condition.details: buffer, read-out: Kinetic_solubility
reported.endpoint: solubility kinetic at 2 h

Guide cases for solubility kinetic at 2 h, answers given:
| chemical.structure | solubility kinetic at 2 h |
| --- | --- |
| Cc1ccc(-c2cnn3c(NCc4ccccn4)cc(C)nc23)cc1 | < 5 µM |
| Cc1cc(NCc2ccccn2)n2ncc(-c3ccc(C(F)(F)F)cc3)c2n1 | < 5 µM |
| Cc1cc(NCc2ccccn2)n2ncc(-c3ccccc3C)c2n1 | < 5 µM |
| Cc1cc(NCc2ccccn2)n2ncc(-c3ccc(F)c(Cl)c3)c2n1 | < 5 µM |

Report solubility kinetic at 2 h for each item below.
1. COc1ccc(-c2cnn3c(NCc4ccccn4)cc(C)nc23)cc1
2. Cc1cc(NCc2ccccn2)n2nc(C)c(-c3cccnc3F)c2n1
3. Cc1cc(NCc2ccc(F)cn2)n2nc(C)c(-c3ccccc3)c2n1
4. Cc1cc(NCc2ccccn2)n2nc(C)c(-c3ccccc3)c2n1
5. Cc1cc(NCc2ccccn2)n2nc(C)c(Nc3ccccc3)c2n1
6. Cc1cc(NCc2ccccn2)n2ncc(-c3cc(F)c(F)c(F)c3)c2n1
7. Cc1cc(NCc2ccncc2)n2nc(C)c(-c3ccccc3)c2n1
8. Cc1cc(NCc2ccccn2)n2ncc(-c3ccc(C(=O)NCCN(C)C)cc3)c2n1

["< 5 µM", "< 5 µM", "< 5 µM", "< 5 µM", "7.8 µM", "< 5 µM", "134 µM", "189 µM"]

Report solubility kinetic at 2 h for each item below.
1. Cc1cc(NCCc2ccccn2)n2nc(C)c(-c3ccccc3)c2n1
2. Cc1cc(NCc2ccccn2)n2ncc(-c3ccc(C(=O)Nc4ccccc4)cc3)c2n1
3. Cc1cc(NCc2ccccn2)n2ncc(-c3ccc(O)cc3)c2n1

1. < 5 µM
2. 5 µM
3. 10.9 µM
